FYI, the data here is from PubChem BioAssay (NCI).

# experiment_notes: NCI Yeast Anticancer Drug Screen. Data for the rad50EPP+ strain (AID 151);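 note: 0% = growth of vehicle-treated control cultures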
# run_parameters: S. cerevisiae rad50 mutant strain, at 11.0 µM, active compounds read high
About 79,000 compounds went through this panel and 15% of them were active in at least one assay; those are over-represented in the sample as a whole.
endpoint: growth inhibition (%)

molecule: O=S(=O)(O)c1ccc(Cl)cc1.[Cd]
quantitative_result: 23
//
molecule: C/C(=N\N=C(N)N)C(CN1CCOCC1)C(c1ccccc1)c1c(O)c2ccccc2oc1=O (stereo unspecified)
quantitative_result: -6
//
molecule: Cc1nc2ccccc2cc1C[N+]12CN3CN(CN(C3)C1)C2
quantitative_result: 1
//
molecule: COC1C(O)C(C)OC(OC2C(Oc3cccc4c(O)c5c(=O)oc6ccc(C)c7c(=O)oc(c34)c5c67)OC(C)C(O)C2O)C1O (stereo unspecified)
quantitative_result: 31
//
molecule: Nc1nc(N)c2c(Cl)c(CNc3ccc(C(=O)NC(CC(=O)O)C(=O)O)cc3)ccc2n1 (stereo unspecified)
quantitative_result: 13
//
molecule: CNC(=O)ON(C(C)=O)C(=O)NC
quantitative_result: -15
//
molecule: COc1cc(O)c2c(O)c3c(c4c2c1[C@]1(C4)C(C)=CCCC1(C)C)[C@H](O)[C@@]1(O)CC(=O)C(C(N)=O)=C(O)[C@@]1(O)C3=O
quantitative_result: 97
//
molecule: O=C(O)C1C2C=CC(C2)C1c1ccccc1 (stereo unspecified)
quantitative_result: -6
//
molecule: O=C1C=C(CN(CCCl)CCCl)C(=O)C=C1CN(CCCl)CCCl
quantitative_result: 0
//
molecule: BrCC[N+]12CC[N+](CCBr)(CC1)C2
quantitative_result: 12
//
molecule: CNC(=O)OCC1C2=C(C(=O)C(C)=C(N)C2=O)N2CC3C(N3C)C12OC (stereo unspecified)
quantitative_result: 22
//
molecule: CNCC(O)c1ccc(O)c(O)c1.[Pt].c1ccc([PH+](c2ccccc2)c2ccccc2)cc1.c1ccc([PH+](c2ccccc2)c2ccccc2)cc1
quantitative_result: -21
//
molecule: C[C@]12CCC3[C@@H](CC[C@@H]4c5nonc5CC[C@]34C)C1CCC2=O (stereo partly specified)
quantitative_result: 16
//
molecule: Cc1c2ccccc2cc2ccccc12
quantitative_result: 96
//
molecule: COC(=O)c1c(C)ccc2c(O)c3c(cc12)C(=O)c1c2c(cc(O)c1C3=O)C1(C)OC(C)(O2)C(O)C(N(C)C)C1O (stereo unspecified)
quantitative_result: 51
//
molecule: CCCCCCCCCC[Se]C#N
quantitative_result: 23
//
molecule: C=CC[N+]12CN3CN(CN(C3)C1)C2
quantitative_result: -31
//
molecule: COC(=O)C1=C(C(=O)OC)C2OC1c1cc3ccccc3cc12
quantitative_result: 79
//
molecule: CC1=C(CO)C2=C(C)C3(CC3)[C@@](C)(O)C(=O)C2=C1
quantitative_result: 0
//
molecule: C[N+]1(CCCl)CC[N+](C)(CCCl)CC1 (stereo unspecified)
quantitative_result: 2
//
molecule: CC1CC(Br)C(=O)O1 (stereo unspecified)
quantitative_result: 34
//
molecule: Cc1c(N)nc([C@H](CC(N)=O)NC[C@H](N)C(N)=O)nc1C(=O)N[C@H](C(=O)N[C@H](C)[C@@H](O)[C@H](C)C(=O)N[C@H](C(=O)NCCc1nc(-c2nc(C(=O)NCCC[S+](C)C)cs2)cs1)[C@@H](C)O)C(OC1OC(CO)C(O)C(O)C1OC1OC(CO)C(O)C(OC(N)=O)C1O)c1cnc[nH]1 (stereo partly specified)
quantitative_result: 31
//
molecule: [N-]=[N+]=C1C(Cl)=C(Cl)C(Cl)=C1Cl
quantitative_result: 32
//
molecule: CCCCCCCCCCCCCCCCP(=O)(O)OP(=O)(O)OCC1OC(n2ccc(N)nc2=O)C(O)C1O (stereo unspecified)
quantitative_result: -6
//
molecule: Oc1cccc2nc3ccccc3nc12
quantitative_result: 6
//
molecule: COc1ccc(/C=C(/C)[N+](=O)[O-])cc1
quantitative_result: 94
//
molecule: Br[Se]c1ccccn1
quantitative_result: 98
//
molecule: COc1cc(C2c3cc4c(cc3[C@@H](Nc3ccc(N)cc3)C3COC(=O)[C@H]23)OCO4)cc(OC)c1O (stereo partly specified)
quantitative_result: 63
//
molecule: C[C@]12CC[C@H](O)CC1=CC[C@@H]1[C@@H]2CC[C@]2(C)C(=O)CC[C@@H]12
quantitative_result: 0
//
molecule: c1ccc2cc3n[se]nc3cc2c1
quantitative_result: 33
//
molecule: CC[C@@]1(O)C[C@H](OC2CC(N(C)C)C(O)C(C)O2)c2c(O)c3c(c(O)c2[C@H]1OC1CC(N(C)C)C(O)C(C)O1)C(=O)c1cccc(O)c1C3=O (stereo partly specified)
quantitative_result: 25
//
molecule: CC12CCC(C1)C(C)(C)C2OC(=O)c1ccccc1N (stereo unspecified)
quantitative_result: 0
//
molecule: O=[N+]([O-])c1cc([As](Br)c2ccc(O)c([N+](=O)[O-])c2)ccc1O
quantitative_result: 26
//
molecule: CC[C@](O)(C(=O)O)c1cc2n(c(=O)c1CO)Cc1cc3ccccc3nc1-2
quantitative_result: 96
//
molecule: COc1ccc(OC)c(/C=C/[N+](=O)[O-])c1
quantitative_result: 74
//
molecule: Cn1cnc(N)c1C(=N)[Se]
quantitative_result: 98
//
molecule: COC(=O)C1C2c3ccccc3C(c3ccccc32)C1C(=O)OC (stereo unspecified)
quantitative_result: 4
//
molecule: C/C(=N\NC(N)=O)C(CN1CCOCC1)C(c1ccccc1)c1c(O)c2ccccc2oc1=O (stereo unspecified)
quantitative_result: 1
//
molecule: CC[C@@]1(O)C(=O)OCc2c1cc1n(c2=O)Cc2cc3c(NC(=O)CN)cccc3nc2-1
quantitative_result: 6
//
molecule: CCN(CC)CCBr
quantitative_result: 27
//
molecule: O=c1c2ccccc2[se]n1-c1cccnc1
quantitative_result: 98
